- assayed system: hNaV1.1 (SCN1A) (Homo sapiens)
- experimental protocol: Use-dependent inhibition of the CNS NaV1.1 sodium channel
- Assay type: cell-based
- test conditions: % inhibition, use-dependent block at 10 uM; 25 Hz; read-out: Nav1.1 UDB 25 Hz 10 uM
experimental readout: inhibition at 10 µM (%)

[
  {
    "compound": "CC1c2cc(-c3ccc(C(F)(F)F)cc3)ccc2OC(=O)N1Cc1ncccn1 (stereo not drawn)",
    "value": 82.4
  },
  {
    "compound": "O=C1Oc2ccc(-c3ccc(C4(C(F)(F)F)CC4)cc3)cc2CN1Cc1ncccn1",
    "value": 78.1
  },
  {
    "compound": "Cc1csc(CN2Cc3cc(-c4ccc(OC(F)(F)F)cc4Cl)ccc3OC2=O)n1",
    "value": 48.8
  },
  {
    "compound": "COc1cc(OC(F)(F)F)ccc1-c1ccc2c(c1)CN(Cc1nccc(C)n1)C(=O)O2",
    "value": 53.3
  },
  {
    "compound": "Cc1csc(CN2Cc3cc(-c4ccc(OC(F)(F)F)cc4)ccc3OC2=O)n1",
    "value": 57.6
  },
  {
    "compound": "Cc1csc(CN2Cc3cc(-c4ccc(OC(F)(F)F)c(F)c4)ccc3OC2=O)n1",
    "value": 87.6
  },
  {
    "compound": "O=C1Oc2ccc(-c3ccc(OC(F)(F)F)cc3F)cc2CN1Cc1ccccn1",
    "value": 50.8
  },
  {
    "compound": "O=C1Oc2ccc(-c3ccc(C(F)(F)F)cc3)cc2CN1Cc1ccccn1",
    "value": 79.6
  },
  {
    "compound": "O=C1Oc2ccc(-c3ccc(OC(F)(F)F)c(F)c3)cc2CN1Cc1ncccn1",
    "value": 75.9
  },
  {
    "compound": "Cc1ccnc(CN2Cc3cc(-c4ccc(C(F)(F)F)cc4)ccc3OC2=O)n1",
    "value": 87.5
  },
  {
    "compound": "Cc1cc(OC(F)(F)F)ccc1-c1ccc2c(c1)CN(Cc1ncccn1)C(=O)O2",
    "value": 11.6
  },
  {
    "compound": "CCOc1cc(OC(F)(F)F)ccc1-c1ccc2c(c1)CN(Cc1ncccn1)C(=O)O2",
    "value": 71.3
  }
]

---

- assayed system: wild-type human cardiac sodium channel, hNaV 1.5 (Peak INa) (Homo sapiens, UniProt Q14524)
- Sequence (Q14524 whole entry): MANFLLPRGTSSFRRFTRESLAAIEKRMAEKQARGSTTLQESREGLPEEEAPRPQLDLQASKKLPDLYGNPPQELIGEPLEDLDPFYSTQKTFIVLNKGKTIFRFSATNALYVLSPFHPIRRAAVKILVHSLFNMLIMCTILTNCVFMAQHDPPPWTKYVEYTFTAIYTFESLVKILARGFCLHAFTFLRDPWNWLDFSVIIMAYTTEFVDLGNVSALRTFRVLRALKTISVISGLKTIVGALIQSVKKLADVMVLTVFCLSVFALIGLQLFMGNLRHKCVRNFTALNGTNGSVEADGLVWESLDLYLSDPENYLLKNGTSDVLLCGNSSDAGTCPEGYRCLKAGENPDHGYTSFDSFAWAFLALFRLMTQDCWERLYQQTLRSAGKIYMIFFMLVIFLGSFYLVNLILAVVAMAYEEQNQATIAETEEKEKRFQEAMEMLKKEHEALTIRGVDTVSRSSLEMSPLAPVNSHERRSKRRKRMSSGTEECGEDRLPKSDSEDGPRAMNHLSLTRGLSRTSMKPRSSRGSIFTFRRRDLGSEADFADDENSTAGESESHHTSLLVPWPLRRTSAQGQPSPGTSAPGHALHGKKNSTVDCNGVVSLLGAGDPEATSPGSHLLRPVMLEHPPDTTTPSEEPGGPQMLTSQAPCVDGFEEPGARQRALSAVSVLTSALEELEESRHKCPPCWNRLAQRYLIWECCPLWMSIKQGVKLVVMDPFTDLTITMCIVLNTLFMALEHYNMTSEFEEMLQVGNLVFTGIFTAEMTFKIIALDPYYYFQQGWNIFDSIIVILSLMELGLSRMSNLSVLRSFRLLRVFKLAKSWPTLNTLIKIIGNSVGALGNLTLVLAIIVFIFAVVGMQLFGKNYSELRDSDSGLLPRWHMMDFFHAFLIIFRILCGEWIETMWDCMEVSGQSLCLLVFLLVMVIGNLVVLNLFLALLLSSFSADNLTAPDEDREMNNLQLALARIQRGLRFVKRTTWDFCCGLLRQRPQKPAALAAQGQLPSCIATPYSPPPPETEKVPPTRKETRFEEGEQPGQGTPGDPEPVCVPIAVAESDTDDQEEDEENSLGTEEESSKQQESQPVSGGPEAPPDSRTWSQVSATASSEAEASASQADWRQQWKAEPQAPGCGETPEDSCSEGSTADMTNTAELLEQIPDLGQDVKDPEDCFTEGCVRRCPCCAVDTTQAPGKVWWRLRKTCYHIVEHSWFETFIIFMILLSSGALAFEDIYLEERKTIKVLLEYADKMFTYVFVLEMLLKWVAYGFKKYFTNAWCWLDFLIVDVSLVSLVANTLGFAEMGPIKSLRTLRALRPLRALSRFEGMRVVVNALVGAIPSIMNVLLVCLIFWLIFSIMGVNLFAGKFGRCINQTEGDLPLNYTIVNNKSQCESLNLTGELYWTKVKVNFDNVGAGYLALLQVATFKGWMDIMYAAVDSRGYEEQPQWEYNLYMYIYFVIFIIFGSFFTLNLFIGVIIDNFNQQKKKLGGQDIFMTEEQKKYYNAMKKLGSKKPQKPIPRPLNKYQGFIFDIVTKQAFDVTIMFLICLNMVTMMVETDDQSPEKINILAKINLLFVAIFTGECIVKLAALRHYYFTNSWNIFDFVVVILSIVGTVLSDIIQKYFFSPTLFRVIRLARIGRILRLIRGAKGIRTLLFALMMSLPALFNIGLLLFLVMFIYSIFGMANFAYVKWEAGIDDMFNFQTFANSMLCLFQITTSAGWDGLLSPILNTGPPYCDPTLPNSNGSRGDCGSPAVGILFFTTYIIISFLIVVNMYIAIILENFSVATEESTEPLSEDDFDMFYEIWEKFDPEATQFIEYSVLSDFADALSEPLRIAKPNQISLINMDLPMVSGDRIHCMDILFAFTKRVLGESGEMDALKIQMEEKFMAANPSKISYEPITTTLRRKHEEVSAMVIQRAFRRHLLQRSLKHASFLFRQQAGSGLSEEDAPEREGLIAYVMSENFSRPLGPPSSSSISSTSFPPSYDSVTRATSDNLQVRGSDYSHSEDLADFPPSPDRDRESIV
- experimental protocol: Peak INa screening assay (tonic block and use-dependent block)
- Format: cell-based
- test conditions: read-out: Nav1.5 Peak TB 3 uM, % inhibition, tonic block of peak INa at 3 uM; 0.1 Hz; holding -100 mV
Known inhibition at 3 µM of a selection of compounds

[
  {
    "compound": "Cc1cnc(CN2Cc3cc(-c4ccc(C(F)(F)F)cc4F)ccc3OC2=O)nc1 [Example 41]",
    "assayed system": "wild-type human cardiac sodium channel, hNaV 1.5 (Peak INa) (Homo sapiens, UniProt Q14524)",
    "unit annotation": "%",
    "inhibition at 3 µM": 17.5
  },
  {
    "compound": "Cc1cc(C(F)(F)F)ccc1-c1ccc2c(c1)CN(Cc1ncccn1)C(=O)O2 [Example 37]",
    "assayed system": "wild-type human cardiac sodium channel, hNaV 1.5 (Peak INa) (Homo sapiens, UniProt Q14524)",
    "unit annotation": "%",
    "inhibition at 3 µM": 14
  },
  {
    "compound": "COc1cc(C(F)(F)F)ccc1-c1ccc2c(c1)CN(Cc1cccc(C)n1)C(=O)O2 [Example 44]",
    "assayed system": "wild-type human cardiac sodium channel, hNaV 1.5 (Peak INa) (Homo sapiens, UniProt Q14524)",
    "unit annotation": "%",
    "inhibition at 3 µM": 21.6
  },
  {
    "compound": "COc1cc(OC(F)(F)F)ccc1-c1ccc2c(c1)CN(Cc1ccccn1)C(=O)O2 [Example 22]",
    "assayed system": "wild-type human cardiac sodium channel, hNaV 1.5 (Peak INa) (Homo sapiens, UniProt Q14524)",
    "unit annotation": "%",
    "inhibition at 3 µM": 24.9
  },
  {
    "compound": "O=C1Oc2ccc(-c3ccc(C(F)(F)F)cc3)cc2CN1Cc1ccccn1 [Example 24]",
    "assayed system": "wild-type human cardiac sodium channel, hNaV 1.5 (Peak INa) (Homo sapiens, UniProt Q14524)",
    "unit annotation": "%",
    "inhibition at 3 µM": 28.5
  },
  {
    "compound": "Cc1ccnc(CN2Cc3cc(-c4ccc(OC(F)(F)F)cc4F)ccc3OC2=O)n1 [Example 32]",
    "assayed system": "wild-type human cardiac sodium channel, hNaV 1.5 (Peak INa) (Homo sapiens, UniProt Q14524)",
    "unit annotation": "%",
    "inhibition at 3 µM": 33.1
  },
  {
    "compound": "O=C1Oc2ccc(-c3ccc(OC(F)(F)F)cc3)cc2CN1CCc1ncccn1 [Example 16]",
    "assayed system": "wild-type human cardiac sodium channel, hNaV 1.5 (Peak INa) (Homo sapiens, UniProt Q14524)",
    "unit annotation": "%",
    "inhibition at 3 µM": 22.1
  },
  {
    "compound": "Cc1csc(CN2Cc3cc(-c4ccc(OC(F)(F)F)c(F)c4)ccc3OC2=O)n1 [Example 53]",
    "assayed system": "wild-type human cardiac sodium channel, hNaV 1.5 (Peak INa) (Homo sapiens, UniProt Q14524)",
    "unit annotation": "%",
    "inhibition at 3 µM": 19.8
  }
]
